Biological target: hTRPM8 (Homo sapiens, UniProt Q7Z2W7)
Construct: expressed in transfected cells
Sequence (Q7Z2W7 whole entry): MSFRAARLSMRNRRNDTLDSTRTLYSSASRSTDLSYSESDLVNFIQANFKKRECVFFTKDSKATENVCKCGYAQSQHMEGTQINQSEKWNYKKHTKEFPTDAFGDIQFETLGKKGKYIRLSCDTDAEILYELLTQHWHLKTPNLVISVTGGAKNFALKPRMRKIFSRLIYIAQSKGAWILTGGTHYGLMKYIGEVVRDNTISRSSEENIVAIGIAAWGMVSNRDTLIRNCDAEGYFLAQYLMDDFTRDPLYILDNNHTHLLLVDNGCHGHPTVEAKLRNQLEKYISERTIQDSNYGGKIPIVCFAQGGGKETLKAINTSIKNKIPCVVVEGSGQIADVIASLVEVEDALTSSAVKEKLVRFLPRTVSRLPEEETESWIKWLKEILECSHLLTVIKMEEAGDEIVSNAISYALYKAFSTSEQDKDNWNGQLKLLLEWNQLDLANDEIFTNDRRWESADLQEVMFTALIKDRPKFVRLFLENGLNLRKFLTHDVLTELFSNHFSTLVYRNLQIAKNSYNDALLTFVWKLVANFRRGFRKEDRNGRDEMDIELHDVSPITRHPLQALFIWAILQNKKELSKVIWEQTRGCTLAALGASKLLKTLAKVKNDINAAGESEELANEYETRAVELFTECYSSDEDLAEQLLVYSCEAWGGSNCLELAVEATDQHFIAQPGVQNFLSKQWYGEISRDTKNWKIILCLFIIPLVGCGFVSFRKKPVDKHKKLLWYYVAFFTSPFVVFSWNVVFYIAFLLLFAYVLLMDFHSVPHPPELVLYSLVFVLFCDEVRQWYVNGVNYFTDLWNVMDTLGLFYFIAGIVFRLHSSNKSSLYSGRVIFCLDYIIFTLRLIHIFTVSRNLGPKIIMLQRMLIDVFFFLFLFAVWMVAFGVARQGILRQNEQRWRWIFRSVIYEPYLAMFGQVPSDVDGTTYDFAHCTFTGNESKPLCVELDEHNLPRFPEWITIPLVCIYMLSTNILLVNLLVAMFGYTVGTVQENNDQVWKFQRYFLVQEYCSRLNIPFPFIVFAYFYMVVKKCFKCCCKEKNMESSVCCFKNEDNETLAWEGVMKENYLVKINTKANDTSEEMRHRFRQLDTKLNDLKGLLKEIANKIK
Assay: Assay on TRPM8 modulators: calcium imaging (Fluo-4, Flexstation) in HEK293 cell line stably expressing hTRPM8
Assay type: cell-based
Conditions: HEK293 cells stably expressing hTRPM8, calcium influx, sigmoidal dose-response fit; read-out: EC50
Protocol: A HEK293 cell line stably expressing hTRPM8 was generated according to Klein et al., (Chem. Senses 36: 649-658, 2011) and receptor activation was monitored by calcium imaging in a Flexstation. […] On day 2, agonists were evaluated via calcium imaging using Fluo-4. […] The cells were then washed five times with 100 μL assay buffer and then calcium influx to serial dilutions of inventive compounds were measured in a Flexstation 3 (Molecular Devices). […]
pEC50: −log10 of the molar value.
readout.type: pEC50

Please report the recorded pEC50 for CC1CC(C)C2C(C1)C1(CCCC1)ON2C(C)C (stereo not shown) [Compound 13] .
4.46 to 6.00
